- target entity: GADS (Homo sapiens)
- Construct: the DNA-tagged SH2 domain concentrations used in this study were <0.1 nM; made in house; host or cells: HEK293 (transient transfection; unpurified extract)
- Sequence (O75791 58-149 limits assumed): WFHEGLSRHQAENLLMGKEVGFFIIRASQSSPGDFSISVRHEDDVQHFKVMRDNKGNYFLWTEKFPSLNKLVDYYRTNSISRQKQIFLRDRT
- measurement protocol: biochemical
- Type: binding
- condition info: read-out: percent of DMSO vehicle control
Non-standard residues stand in square brackets, D forms with d. Residues, ends and D or L forms follow the SMILES beside them. *: point of attachment. pY = N[C@@H](Cc1ccc(OP(=O)(O)O)cc1)C(=O)O; Caffeoyl = O=C(/C=C/c1ccc(O)c(O)c1)*
# percent of DMSO vehicle control at 10 µM annotations
Form entry: value (%) — number only.

CC(=O)N1CC[C@H]2CC[C@@H](C(=O)N[C@@H](CCC(N)=O)C(=O)NC(c3ccccc3)c3ccccc3)N2C(=O)[C@@H](NC(=O)c2cc3cc(C(F)(F)P(=O)(O)O)ccc3[nH]2)C1 [SI-109]	276
CC(=O)N[C@@H](Cc1ccc(CP(=O)(O)O)cc1)C(=O)NC1(C(=O)N[C@@H](CC(N)=O)C(=O)NCCCc2c(O)ccc3ccccc23)CCCCC1 [CGP78850]	42
CC[C@H](C)[C@H](NC(=O)[C@H](CCC(=O)O)NC(=O)[C@H](CCC(=O)O)NC(=O)[C@H](Cc1ccc(OP(=O)(O)O)cc1)NC(=O)/C=C/c1ccc(O)c(O)c1)C(=O)N[C@@H](CCC(=O)O)C(=O)O [Caffeic acid-pYEEIE] (Caffeoyl-[pY]EEIE-OH)	94.8

Enquiry: Report percent of DMSO vehicle control at 10 µM for NC(=O)CC[C@H](NC(=O)[C@@H]1CC[C@@H]2CCN(C(=O)CCCCCC#Cc3cccc4c3CN(C3CCC(=O)NC3=O)C4=O)C[C@H](NC(=O)c3cc4cc(C(F)(F)P(=O)(O)O)ccc4[nH]3)C(=O)N21)C(=O)NC(c1ccccc1)c1ccccc1 (stereo partly shown) [SD-36] please.
Return: 140
